Target: alpha-thrombin (Homo sapiens, UniProt P00734;P00734 P00734:328-363,P00734:364-622)
Experiment: filter; ±0.9; Fbmax 84.5; same buffer, 22 C
property: pKd
# log scale: pKd equals minus log10 of the concentration in mol/L

I am curious: what pKd value has been reported for Clone 4 (ssRNA) RNA: GGAGAGGGAAGGAGAACGGCUGCGGAUAACAAGAUAGCAAAGACUAAGUGACACAAAGCCCGG ? 8.00
